The values you see were collected from patent US20260218138A1.

# Measurement protocol: Enzyme-coupled assay: transfer of acyl-moieties from MMal-CoA to the ACP
# Type: biochemical
# Condition info: substrate MMal-CoA, acceptor ACP from murine FAS
Attribute measured: Km
Provide a numeric answer, followed by its unit.

(WT): wild type murine FAS malonyl-acetyl-transferase (MAT), no mutation (protein, listed as Mus musculus) NKRPLWFICSGMGTQWRGMGLSLMRLDSFRESILRSDEAVKPLGVKVSDLLLSTDERTFDDIVHAFVSLTAIQIALIDLLTSVGLKPDGIIGHSLGEVACGYADGCLSQREAVLAAYWRGQCIKDAHLPPGSMAAVGLSWEECKQRCPAGVVPACHNSEDTVTISGPQAAVNEFVEQLKQEGVFAKEVRTGGLAFHSYFMEGIAPTLLQALKKVIREPRPRSARWLSTSIPEAQWQSSLARTSSAEYNVNNLVSPVLFQEALWHIPEHAVVLEIAPHALLQAVLKRGVKSSCTIIPLMKRDHKDNLEFFLTNLGKVHLT : 0.53 µM

Please find the next molecule below.
Lookup result for Mutant A10: engineered murine acyltransferase, mutation R300D (protein) NKRPLWFICSGMGTQWRGMGLSLMRLDSFRESILRSDEAVKPLGVKVSDLLLSTDERTFDDIVHAFVSLTAIQIALIDLLTSVGLKPDGIIGHSLGEVACGYADGCLSQREAVLAAYWRGQCIKDAHLPPGSMAAVGLSWEECKQRCPAGVVPACHNSEDTVTISGPQAAVNEFVEQLKQEGVFAKEVRTGGLAFHSYFMEGIAPTLLQALKKVIREPRPRSARWLSTSIPEAQWQSSLARTSSAEYNVNNLVSPVLFQEALWHIPEHAVVLEIAPHALLQAVLKRGVKSSCTIIPLMKDDHKDNLEFFLTNLGKVHLT ; measured Km: 5.06 µM
